System: BDF1 mice, B16 melanoma ip, median survival T/C
test_method_notes: NCI In Vivo Anticancer Drug Screen. Data for tumor model B16 Melanoma (intraperitoneal) in B6D2F1 (BDF1) mice
settings: endpoint: median survival time; dose: 1.0 mg/kg/injection; schedule: Q01DX009 (ip); vehicle: saline with Tween-80; higher = longer survival
Experimental: The antitumor activity of compounds was measured in mice bearing transplantable tumors. Survival or tumor size were measured and the results are expressed as the measurement made in the treated group (T) divided by the measurement made in the vehicle treated control group (C). The tumor model used in this assay is B16 Melanoma (intraperitoneal) in B6D2F1 (BDF1) mice
Inconclusive results and toxic doses are left out.
measure: T/C

Solved cases below.
{"molecule": "O=NN(CCCl)C(=O)NC1CCC(=O)NC1=O (centres undefined)", "value": "119 % of control"}
{"molecule": "CCOC(=O)C(CC(C)C)NC(=O)C(Cc1ccc(N(CCCl)CCCl)cc1)NC(C)=O (centres undefined)", "value": "106 % of control"}
{"molecule": "CCC[CH2][Sn]([CH2]CCC)([CH2]CCC)[O]C(=O)CC[S][Sn]([CH2]CCC)([CH2]CCC)[CH2]CCC", "value": "92 % of control"}

**Query** Need T/C, item C=C1N(C)c2ccccc2C1(C)C
**Result** 104 % of control

====

Tested on: BDF1 mice, B16 melanoma ip, median survival T/C
test_method_notes: NCI In Vivo Anticancer Drug Screen. Data for tumor model B16 Melanoma (intraperitoneal) in B6D2F1 (BDF1) mice
settings: endpoint: median survival time; dose: 200.0 mg/kg/injection; schedule: Q01DX009 (ip); vehicle: Klucel (hydroxypropylcellulose) (HPC); higher = longer survival
Description: The antitumor activity of compounds was measured in mice bearing transplantable tumors. Survival or tumor size were measured and the results are expressed as the measurement made in the treated group (T) divided by the measurement made in the vehicle treated control group (C). The tumor model used in this assay is B16 Melanoma (intraperitoneal) in B6D2F1 (BDF1) mice
Inconclusive results and toxic doses are left out.
The reader will find reported T/C values listed item by item below.

{"compound": "CN(/N=N/c1nc[nH]c1C(N)=O)C(C)(C)C", "T/C": "90 % of control"}
{"compound": "Clc1ccc(/C=N\\N=C\\c2ccc(Cl)c(Cl)c2)cc1Cl", "T/C": "90 % of control"}
{"compound": "C#CC(C)(O)c1ccccc1 (stereo not given)", "T/C": "103 % of control"}
{"compound": "C[N+]1=CN(c2ccc(Cl)cc2)Cc2cc(Cl)ccc21", "T/C": "86 % of control"}

**Query** Need T/C, item Cc1ccn(C(N)=O)n1
**Result** 109 % of control

====

The reader will find reported T/C values listed item by item below.
System: BDF1 mice, B16 melanoma ip, median survival T/C
test_method_notes: NCI In Vivo Anticancer Drug Screen. Data for tumor model B16 Melanoma (intraperitoneal) in B6D2F1 (BDF1) mice
settings: endpoint: median survival time; dose: 12.5 mg/kg/injection; schedule: Q01DX009 (ip); vehicle: Klucel (hydroxypropylcellulose) (HPC); higher = longer survival
Inconclusive results and toxic doses are left out.

Solved cases below.
{"compound": "CNCCCN1c2ccccc2CCc2ccccc21", "experimental_system": "BDF1 mice, B16 melanoma ip, median survival T/C", "T/C": "101 % of control"}
{"compound": "C[N+](C)(C)c1cc2c(nn1)Nc1ccccc1S2", "experimental_system": "BDF1 mice, B16 melanoma ip, median survival T/C", "T/C": "101 % of control"}
{"compound": "Oc1ccc(/C=N/NC(=S)NN2CCOCC2)nc1", "experimental_system": "BDF1 mice, B16 melanoma ip, median survival T/C", "T/C": "104 % of control"}
{"compound": "[Cl][Pt+2][Cl].[NH-]C1CCCCC1.[NH-]C1CCCCC1", "experimental_system": "BDF1 mice, B16 melanoma ip, median survival T/C", "T/C": "110 % of control"}
{"compound": "COc1ccc2c(c1)C13CCCCC1C(C2)N(CC1(c2ccccc2)CC1)CC3 (stereo not given)", "experimental_system": "BDF1 mice, B16 melanoma ip, median survival T/C", "T/C": "119 % of control"}
{"compound": "CCC(c1ccc(OC(=O)Cc2ccc(N(CCCl)CCCl)cc2)cc1)C(CC)c1ccc(OC(=O)Cc2ccc(N(CCCl)CCCl)cc2)cc1 (stereo not given)", "experimental_system": "BDF1 mice, B16 melanoma ip, median survival T/C", "T/C": "110 % of control"}
{"compound": "CC1(S)CCC2CC1C2(C)C (stereo not given)", "experimental_system": "BDF1 mice, B16 melanoma ip, median survival T/C", "T/C": "94 % of control"}
{"compound": "CC(=O)NC(C=O)C(O)C(O)C(O)C(=O)O (stereo not given) (tested in a mixture with another compound)", "experimental_system": "BDF1 mice, B16 melanoma ip, median survival T/C", "T/C": "107 % of control"}

**Query** Need T/C, item CN(C)S(=O)(=O)c1ccc2c(c1)N(CCCN1CCN(S(C)(=O)=O)CC1)c1ccccc1S2
**Result** 95 % of control

**Query** Need T/C, item COc1cc2c[n+](C)c3c4cc5c(cc4ccc3c2cc1OC)OCO5 (tested in a mixture with another compound)
**Result** 124 % of control

====

The reader will find reported T/C values listed item by item below.
System: BDF1 mice, B16 melanoma ip, median survival T/C
test_method_notes: NCI In Vivo Anticancer Drug Screen. Data for tumor model B16 Melanoma (intraperitoneal) in B6D2F1 (BDF1) mice
settings: endpoint: median survival time; dose: 2.5 mg/kg/injection; schedule: Q01DX009 (ip); vehicle: Klucel (hydroxypropylcellulose) (HPC); higher = longer survival
Toxic doses and inconclusive results are not listed.

Solved cases below.
{"compound": "COc1cc2c(c(OC)c1OC)-c1cc3c(cc1[C@@H](OC(C)=O)[C@@H]1COC(=O)[C@H]1C2)OCO3", "T/C": "94 % of control"}
{"compound": "CC(C)(O)C1OCC(C2CCC3(C)C4=CCC5C(C)(C)C(O)CCC5(C)C4CCC23C)CC1O (centres undefined)", "T/C": "102 % of control"}
{"compound": "CCCC(=O)NC1CCc2cc(OC)c(OC)c(OC)c2-c2ccc(OC)c(=O)cc21 (centres undefined)", "T/C": "123 % of control"}

**Query** Provide the documented T/C with BDF1 mice, B16 melanoma ip, median survival T/C as the system for CC1(c2ccc(N(CCCl)CCCl)cc2)NC(=O)NC1=O (centres undefined)
**Result** 104 % of control

====

Tested on: BDF1 mice, B16 melanoma ip, median survival T/C
test_method_notes: NCI In Vivo Anticancer Drug Screen. Data for tumor model B16 Melanoma (intraperitoneal) in B6D2F1 (BDF1) mice
settings: endpoint: median survival time; dose: 400.0 mg/kg/injection; schedule: Q04DX003 (ip); vehicle: saline with Tween-80; higher = longer survival
Toxic doses and inconclusive results are not listed.
measure: T/C

{"compound": "CS(=N)(=O)c1ccccc1 (configuration not stated)", "T/C": "123 % of control"}
{"compound": "Nc1ccn(C2OC(CO)C(O)C2O)c(=O)n1 (configuration not stated)", "T/C": "92 % of control"}
{"compound": "C=CCn1c(=S)[nH]c2ccccc2c1=O", "T/C": "92 % of control"}

**Query** Need T/C, item COC(=O)CCC(=O)N1CCOCC1
**Result** 102 % of control

**Query** Need T/C, item O=C(COc1ccccc1)CC(O)(C(F)(F)F)C(F)(F)F
**Result** 97 % of control

**Query** Need T/C, item O=C(Nc1ccc2ccccc2c1)c1ccc(Cl)cc1Cl
**Result** 94 % of control

**Query** Need T/C, item C/C(=C\c1ccccc1)C(=O)c1ccccc1
**Result** 92 % of control

**Query** Need T/C, item CC#CCOCC1CN(c2ccccc2)C(=O)O1 (configuration not stated)
**Result** 94 % of control

**Query** Need T/C, item O=c1cnn(C2OC(CO)C(O)C2O)c(=S)[nH]1 (configuration not stated)
**Result** 88 % of control

**Query** Need T/C, item COB1OB(OC)OB(OC)O1
**Result** 110 % of control

**Query** Need T/C, item CC(=O)c1ccccc1OCC(O)CN1CCN(c2cccc(C(F)(F)F)c2)CC1 (configuration not stated)
**Result** 91 % of control

**Query** Need T/C, item O=S(=O)(c1ccc(Cl)cc1)c1ccc(Cl)cc1
**Result** 100 % of control

====

System: BDF1 mice, B16 melanoma ip, median survival T/C
test_method_notes: NCI In Vivo Anticancer Drug Screen. Data for tumor model B16 Melanoma (intraperitoneal) in B6D2F1 (BDF1) mice
settings: endpoint: median survival time; dose: 100.0 mg/kg/injection; schedule: Q01DX009 (ip); vehicle: water
Method: The antitumor activity of compounds was measured in mice bearing transplantable tumors. Survival or tumor size were measured and the results are expressed as the measurement made in the treated group (T) divided by the measurement made in the vehicle treated control group (C). The tumor model used in this assay is B16 Melanoma (intraperitoneal) in B6D2F1 (BDF1) mice
Toxic doses and inconclusive results are not listed. The calls were made as follows: active = survival T/C of 150% or more; inactive = T/C below 125% in these data.
Use one of these outcomes when replying: active, inactive

{"compound": "NC(=O)c1csc(C2OC(CO)C(O)C2O)n1 (centres undefined)", "assigned_label": "inactive"}

**Query** Write down the call the test reported for this compound. Item: OC(CCl)CN1CC[N+]2(CC1)CC[N+]1(CCN(CC(O)CCl)CC1)CC2 (centres undefined)
**Result** active

**Query** Write down the call the test reported for this compound. Item: CNC1C(OC2C(OC3C(O)C(O)C(N=C(N)N)C(O)C3N=C(N)N)OC(C)C2(O)C=O)OC(CO)C(O)C1O (centres undefined)
**Result** inactive

**Query** Write down the call the test reported for this compound. Item: CNNCc1ccc(/C=N/NC(N)=S)cc1
**Result** inactive
